test: PK test of compound F2 and its solid dispersion, oral, fasted male Wistar rats; format: in vivo; details: Wistar (Crlj:WI), rat, compound F2 in plasma, 10 mg/kg (as compound F2) p.o., n=3
measureName: Tmax
Reply with the number and its unit after it.

Give reported Tmax value for O=C1CC(=O)N(c2ccc(NC(=O)c3ccccc3C(F)(F)F)cc2)c2ccc3ccccc3c2N1 4 h

---

assay: PK test of compound F2 and its solid dispersion, oral, fasted male Wistar rats; type: in vivo; conditions: Wistar (Crlj:WI), rat, compound F2 in plasma, 10 mg/kg (as compound F2) p.o., n=3
measureName: Cmax (ng/mL)
// return numeric value only (unit: ng/mL, not printed)

Query Cmax for O=C1CC(=O)N(c2ccc(NC(=O)c3ccccc3C(F)(F)F)cc2)c2ccc3ccccc3c2N1 386
